So I've got a bunch of compounds here, and I need their MIC values.
# System: Escherichia coli
# Measurement notes: Antimicrobial activity against Escherichia coli MTCC-443 after 24 hrs by broth dilution method
# Assay type: functional
# Stated conditions: MTCC-443, 24 h
Lab book: enter the figure in µg/mL, no units written.

The compound C/C(=N\n1c(/N=C/c2ccc(Br)cc2)c(C#N)c(-c2ccc([N+](=O)[O-])cc2)c(C#N)c1=O)c1nc2ccccc2[nH]1 , tested on Escherichia coli, showed MIC of 50

The compound C/C(=N\n1c(/N=C/c2ccccc2C)c(C#N)c(-c2ccc([N+](=O)[O-])cc2)c(C#N)c1=O)c1nc2ccccc2[nH]1 , tested on Escherichia coli, showed MIC of 250

The compound C/C(=N\n1c(/N=C/c2ccccc2O)c(C#N)c(-c2ccc([N+](=O)[O-])cc2)c(C#N)c1=O)c1nc2ccccc2[nH]1 , tested on Escherichia coli, showed MIC of 500

The compound C/C(=N\n1c(/N=C/c2ccc([N+](=O)[O-])cc2)c(C#N)c(-c2ccc([N+](=O)[O-])cc2)c(C#N)c1=O)c1nc2ccccc2[nH]1 , tested on Escherichia coli, showed MIC of 1000

The compound O=C(N[C@H](CO)[C@H](O)c1ccc([N+](=O)[O-])cc1)C(Cl)Cl , tested on Escherichia coli, showed MIC of 50

The compound COc1cccc(/C=N/c2c(C#N)c(-c3ccc([N+](=O)[O-])cc3)c(C#N)c(=O)n2/N=C(\C)c2nc3ccccc3[nH]2)c1 , tested on Escherichia coli, showed MIC of 250

The compound C/C(=N\n1c(N)c(C#N)c(-c2ccc([N+](=O)[O-])cc2)c(C#N)c1=O)c1nc2ccccc2[nH]1 , tested on Escherichia coli, showed MIC of 500
